assayed.system: FGFR3 (Homo sapiens, UniProt P22607)
Construct: purchased Upstate
Sequence (P22607 23-806): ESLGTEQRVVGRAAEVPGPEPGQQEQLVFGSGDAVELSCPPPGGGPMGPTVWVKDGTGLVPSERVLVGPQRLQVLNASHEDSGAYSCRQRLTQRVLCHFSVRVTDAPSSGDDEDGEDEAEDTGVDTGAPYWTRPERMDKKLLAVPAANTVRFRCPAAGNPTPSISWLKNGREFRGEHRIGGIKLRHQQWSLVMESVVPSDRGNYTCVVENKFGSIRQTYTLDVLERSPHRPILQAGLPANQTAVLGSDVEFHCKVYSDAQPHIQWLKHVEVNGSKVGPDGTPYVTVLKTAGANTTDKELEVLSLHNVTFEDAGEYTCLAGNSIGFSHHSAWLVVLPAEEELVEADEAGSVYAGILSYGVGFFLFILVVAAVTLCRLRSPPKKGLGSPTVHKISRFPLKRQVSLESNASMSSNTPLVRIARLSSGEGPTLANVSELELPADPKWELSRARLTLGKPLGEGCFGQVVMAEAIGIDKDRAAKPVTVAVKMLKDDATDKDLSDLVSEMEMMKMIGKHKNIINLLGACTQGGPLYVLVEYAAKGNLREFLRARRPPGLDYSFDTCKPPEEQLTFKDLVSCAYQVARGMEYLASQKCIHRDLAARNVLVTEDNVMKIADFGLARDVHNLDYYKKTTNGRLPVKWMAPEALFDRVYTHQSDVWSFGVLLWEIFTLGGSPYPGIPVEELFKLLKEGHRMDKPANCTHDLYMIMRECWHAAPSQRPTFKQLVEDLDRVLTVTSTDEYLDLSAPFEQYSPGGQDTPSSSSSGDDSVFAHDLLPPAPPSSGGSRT
experiment.description: FGFR3 in vitro kinase inhibitory activity assay
Assay type: biochemical
experimental.context: read-out: FGFR3 IC50(μM) or % I
measurement.name: IC50 (µM)

| compound | measurement.name | recorded.value |
| --- | --- | --- |
| Cc1nnc(-c2ccn3c(-c4cc(NC(=O)NCC(F)(F)F)cc(OC5CCC5)c4)cnc3c2)o1 [Compound F-11] | IC50 | 0.046 |
| CC(C)Oc1cc(NC(=O)NCC(F)(F)F)cc(-c2cnc3cc(-c4cc(N(C)C)ncn4)ccn23)c1 [Compound F-21] | IC50 | 0.012 |
| Cc1nnc(-c2ccn3c(-c4cc(NC(=O)NCC(C)C)cc(OC(C)C)c4)cnc3c2)o1 [Compound F-14] | IC50 | 0.2 |
| COCc1cc(NC(=O)NCC(F)(F)F)cc(-c2cnc3cc(-c4nnc(C)o4)ccn23)c1 [Compound F-7] | IC50 | 0.018 |

A: CC(C)Oc1cc(NC(=O)NCC(F)(F)F)cc(-c2cnc3cc(-c4nncs4)ccn23)c1.Cl [Compound F-19]
B: Cc1nnc(-c2ccn3c(-c4cc(NC(=O)NCC(F)(F)F)cc(OC(C)C)c4)cnc3c2)o1 [Compound F-5]
C: Cc1nnc(-c2ccn3c(-c4cc(NC(=O)NCC(F)(F)F)cc(NC(C)C)c4)cnc3c2)o1 [Compound F-30]
Incoming: Exam item: list the entries in increasing order of IC50. Rank the items, then write their labels in that order.
Outgoing: A, B, C
(A: 0.00247 µM, B: 0.0154 µM, C: 0.17 µM)

----------
Test system: human prostate cancer PC3 cells
experiment.description: EB1 cellular assay (Eb1 Comet assay, microtubule disruption)
Assay type: cell-based
experimental.context: PC-3, lowest active concentration: Eb1 foci absent in at least 50% of treated PC3 cells, 1 hour, read-out: Eb1 LAC
Experimental: The Eb1 Comet assay relies on the detection of the Eb1 protein at the plus end of polymerizing microtubules (Mimori-Kiyosue, 2000) using indirect immunofluorescence. […] Briefly, human prostate cancer PC3 cells obtained from the American Type Culture Collection were grown in 96-well plates (Greiner, cat. no. 655090) in HAM's F12 medium as recommended by the provider (ATCC). […] Compound dependent microtubule disruption was visually determined by the disappearance in Eb1 foci. […]
This listing pairs compounds with measured minimal effective concentration.
Expressed in µM, but write only the number.

Reference set (3 entries):
| compound | recorded.value |
| --- | --- |
| CCNC(=O)Nc1cc(OC(C)C)cc(-c2cnc3cc(-c4nncs4)ccn23)c1 [Compound F-10] | 5 |
| CC(C)Oc1cc(NC(=O)NCC(F)(F)F)cc(-c2cnc3cc(N4CCC(F)(F)CC4)ccn23)c1 [Compound F-13] | 5 |
| COCc1cc(NC(=O)NCC(F)(F)F)cc(-c2cnc3cc(-c4ccnc(C(F)(F)F)n4)ccn23)c1 [Compound F-9] | 2 |

Incoming: // map CC(C)Oc1cc(NC(=O)NCC(F)(F)F)cc(-c2cnc3cc(C(=O)C4CC4)ccn23)c1 [Compound F-6] to recorded minimal effective concentration (system: human prostate cancer PC3 cells)
Outgoing: 3

----------
System: human prostate cancer PC3 cells
experiment.description: EB1 cellular assay (Eb1 Comet assay, microtubule disruption)
Format: cell-based
experimental.context: PC-3, lowest active concentration: Eb1 foci absent in at least 50% of treated PC3 cells, 1 hour, read-out: Eb1 LAC
measurement.name: minimal effective concentration (µM)
Expressed in µM, but write only the number.

Reference set (2 entries):
| structure.smiles.string | recorded.value |
| --- | --- |
| COCc1cc(NC(=O)NCC(F)(F)F)cc(-c2cnc3cc(-c4nnc(C)o4)ccn23)c1 | 10 |
| CC(C)Oc1cc(NC(=O)NCC(F)(F)F)cc(-c2cnc3cc(-c4nncs4)ccn23)c1.Cl | 3 |

Incoming: Data request, read-out minimal effective concentration, for `CCNC(=O)Nc1cc(OC(C)C)cc(-c2cnc3cc(-c4nnc(C)s4)ccn23)c1`
Outgoing: 5

Incoming: Data request, read-out minimal effective concentration, for `Cc1cn(-c2ccn3c(-c4cc(NC(=O)NCC(F)(F)F)cc(OC(C)C)c4)cnc3c2)cn1`
Outgoing: 5

Incoming: Data request, read-out minimal effective concentration, for `CC(C)Oc1cc(NC(=O)NCC(F)(F)F)cc(-c2cnc3cc(OCCO)ccn23)c1`
Outgoing: 3

Incoming: Data request, read-out minimal effective concentration, for `Cc1nnc(-c2ccn3c(-c4cc(NC(=O)NCC(F)(F)F)cc(NC(C)C)c4)cnc3c2)o1`
Outgoing: 10

Incoming: Data request, read-out minimal effective concentration, for `CCOc1cc(NC(=O)NCC(F)(F)F)cc(-c2cnc3cc(-c4nnc(C)o4)ccn23)c1`
Outgoing: 10

Incoming: Data request, read-out minimal effective concentration, for `Cc1nnc(-c2ccn3c(-c4cc(NC(=O)NCC(F)(F)F)cc(OC(C)C)c4)cnc3c2)s1.Cl`
Outgoing: 0.1

Incoming: Data request, read-out minimal effective concentration, for `Cc1nc(N)cc(-c2ccn3c(-c4cc(NC(=O)NCC(F)(F)F)cc(OC(C)C)c4)cnc3c2)n1`
Outgoing: 1

Incoming: Data request, read-out minimal effective concentration, for `CC(C)Oc1cc(NC(=O)NCC(F)(F)F)cc(-c2cnc3cc(OCCCO)ccn23)c1`
Outgoing: 5

Incoming: Data request, read-out minimal effective concentration, for `CC(C)Oc1cc(NC(=O)NCC(F)(F)F)cc(-c2cnc3cc(-c4ccnc(C(F)(F)F)n4)ccn23)c1`
Outgoing: 5

----------
assayed.system: VEGFR2 (Homo sapiens, UniProt P35968)
Construct: purchased Upstate
Sequence (P35968 20-1356): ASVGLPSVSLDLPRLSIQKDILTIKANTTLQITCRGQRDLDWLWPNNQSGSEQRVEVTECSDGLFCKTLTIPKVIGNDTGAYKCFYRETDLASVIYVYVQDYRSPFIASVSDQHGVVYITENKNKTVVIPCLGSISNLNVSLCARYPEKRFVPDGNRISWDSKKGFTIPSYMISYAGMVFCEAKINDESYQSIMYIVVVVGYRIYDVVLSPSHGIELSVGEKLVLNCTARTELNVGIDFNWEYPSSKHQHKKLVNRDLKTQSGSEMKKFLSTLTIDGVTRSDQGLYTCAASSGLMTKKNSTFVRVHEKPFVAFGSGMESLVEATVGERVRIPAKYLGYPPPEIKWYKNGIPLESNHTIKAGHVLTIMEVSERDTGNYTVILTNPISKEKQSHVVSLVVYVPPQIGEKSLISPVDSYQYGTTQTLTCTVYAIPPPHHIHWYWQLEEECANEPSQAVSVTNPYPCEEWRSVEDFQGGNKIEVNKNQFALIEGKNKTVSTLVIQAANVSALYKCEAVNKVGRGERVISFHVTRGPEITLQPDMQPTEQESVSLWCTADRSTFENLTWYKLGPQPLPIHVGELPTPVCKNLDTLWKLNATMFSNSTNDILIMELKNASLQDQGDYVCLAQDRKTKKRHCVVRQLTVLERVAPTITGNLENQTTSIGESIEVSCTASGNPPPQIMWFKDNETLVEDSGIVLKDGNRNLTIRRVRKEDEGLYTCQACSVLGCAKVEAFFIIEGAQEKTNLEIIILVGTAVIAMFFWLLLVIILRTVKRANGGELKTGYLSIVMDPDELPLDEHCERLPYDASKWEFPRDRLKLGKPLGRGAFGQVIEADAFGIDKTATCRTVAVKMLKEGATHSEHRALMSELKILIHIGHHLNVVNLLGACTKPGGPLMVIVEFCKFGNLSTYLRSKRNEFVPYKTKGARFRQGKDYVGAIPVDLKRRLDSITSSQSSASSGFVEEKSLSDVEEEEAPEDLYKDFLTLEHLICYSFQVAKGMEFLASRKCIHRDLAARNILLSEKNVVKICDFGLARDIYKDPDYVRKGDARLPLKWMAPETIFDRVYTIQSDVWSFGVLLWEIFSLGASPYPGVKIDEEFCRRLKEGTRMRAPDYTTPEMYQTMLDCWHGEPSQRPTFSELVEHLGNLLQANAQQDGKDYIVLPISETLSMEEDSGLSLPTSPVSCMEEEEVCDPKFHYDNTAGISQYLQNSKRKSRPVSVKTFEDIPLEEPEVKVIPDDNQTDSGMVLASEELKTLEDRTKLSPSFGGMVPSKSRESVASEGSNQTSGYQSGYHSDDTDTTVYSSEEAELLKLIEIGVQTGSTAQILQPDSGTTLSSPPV
experiment.description: VEGFR2 in vitro kinase inhibitory activity assay
Type: biochemical
experimental.context: read-out: VEGFR2 IC50(μM) or % I
measurement.name: IC50 (µM)

| compound | assayed.system | output.unit | IC50 |
| --- | --- | --- | --- |
| CC(C)Oc1cc(NC(=O)NCC(F)(F)F)cc(-c2cnc3cc(-c4cc(N(C)C)ncn4)ccn23)c1 [Compound F-21] | VEGFR2 (Homo sapiens, UniProt P35968) | µM | 0.79 |

a: Cc1nnc(-c2ccn3c(-c4cc(NC(=O)NCC(C)C)cc(OC(C)C)c4)cnc3c2)o1 [Compound F-14]
b: CC(C)Oc1cc(NC(=O)NCC(F)(F)F)cc(-c2cnc3cc(-c4ccnc(C(F)(F)F)n4)ccn23)c1 [Compound F-8]
Incoming: Given a and given b , which shows the smaller recorded IC50? Response format: the label of the selected entry.
Outgoing: b

----------
Tested on: human prostate cancer PC3 cells
experiment.description: EB1 cellular assay (Eb1 Comet assay, microtubule disruption)
Format: cell-based
experimental.context: PC-3, lowest active concentration: Eb1 foci absent in at least 50% of treated PC3 cells, 1 hour, read-out: Eb1 LAC
This listing pairs compounds with measured minimal effective concentration.

Reference set (2 entries):
| structure.smiles.string | assayed.system | minimal effective concentration |
| --- | --- | --- |
| Cc1nnc(-c2ccn3c(-c4cc(NC(=O)NCC(F)(F)F)cc(OC5CCC5)c4)cnc3c2)o1 | human prostate cancer PC3 cells | > 10 µM |
| CNCc1cc(NC(=O)NCC(F)(F)F)cc(-c2cnc3cc(-c4nnc(C)o4)ccn23)c1 | human prostate cancer PC3 cells | > 10 µM |

Now consider a different compound.
Incoming: Data request, read-out minimal effective concentration, for `CC(C)Oc1cc(NC(=O)NCC(F)(F)F)cc(-c2cnc3cc(-c4nccc(C(C)C)n4)ccn23)c1`
Outgoing: > 10 µM
